- target.desc: ARH3^D314A (Homo sapiens, UniProt Q9NX46, D314A)
- Construct: His6 with PreScission protease cleavage site (N)
- Sequence (Q9NX46 whole entry D314A): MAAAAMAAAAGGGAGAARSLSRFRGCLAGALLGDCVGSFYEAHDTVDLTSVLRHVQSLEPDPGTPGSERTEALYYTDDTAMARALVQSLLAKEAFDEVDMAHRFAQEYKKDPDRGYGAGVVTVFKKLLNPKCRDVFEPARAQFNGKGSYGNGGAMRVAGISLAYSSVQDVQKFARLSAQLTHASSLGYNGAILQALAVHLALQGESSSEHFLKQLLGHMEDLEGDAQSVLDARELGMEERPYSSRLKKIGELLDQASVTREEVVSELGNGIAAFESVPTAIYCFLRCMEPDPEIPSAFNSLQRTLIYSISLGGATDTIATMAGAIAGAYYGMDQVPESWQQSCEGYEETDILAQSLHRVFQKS
- experiment: Isothermal titration calorimetry (ITC) of ADPR binding to ARH3^D314A
- measurement.parameters: ARH3^D314A, 5 mM Mg^2+, 25 °C, pH 7.5
metric.name: pKd
Scale explanation: pKd corresponds to minus log10 of a concentration expressed in moles per litre.

Q) Need pKd of Nc1ncnc2c1ncn2[C@@H]1O[C@H](COP(=O)(O)OP(=O)(O)OC[C@H]2OC(O)[C@H](O)[C@@H]2O)[C@@H](O)[C@H]1O (stereo partly shown) , thanks.
A) 4.20

Data origin: paper PMC8141533
